Assay: MRT (0 to last) in Sprague-Dawley rat at 2.5 mg/kg, iv
Type: ADME, organism-based
Details: in vivo
Test readout: MRT last
# do not omit the unit; it follows the number

MRT last measured on COc1ccc(NS(=O)(=O)c2ccc3c(c2)c2ccc(OP(=O)([O-])[O-])cc2n3C)c(OC)n1.[Na+].[Na+] = 10.2 min

----------
Assay: Aqueous solubility of compound in water at pH 7.4 incubated at 20 degC by HPLC-UV analysis
Format: physicochemical
# maps each entry to its solubility
Expressed in µg/mL, but write only the number.

smiles_repr=COc1ccc(N(CCOP(=O)([O-])[O-])S(=O)(=O)c2ccc3c(c2)c2ccccc2n3C)c(OC)n1.Cl.[Na+].[Na+] test_readout=solubility result=22400
smiles_repr=COc1ccc(N(CCO)S(=O)(=O)c2ccc3c(c2)c2ccccc2n3C)c(OC)n1.Cl test_readout=solubility result=150

solubility measured on COc1ccc(N(CCN2CCSCC2)S(=O)(=O)c2ccc3c(c2)c2ccccc2n3C)c(OC)n1.Cl = 270

solubility measured on COc1ccc(N(CC(N)=O)S(=O)(=O)c2ccc3c(c2)c2ccccc2n3C)c(OC)n1.Cl = 20

solubility measured on COc1ccc(N(CCN2CCCCC2)S(=O)(=O)c2ccc3c(c2)c2ccccc2n3C)c(OC)n1.Cl = 580

solubility measured on COc1ccc(N(CCn2ccnc2)S(=O)(=O)c2ccc3c(c2)c2ccccc2n3C)c(OC)n1.Cl = 21500

solubility measured on COc1ccc(N(CCN)S(=O)(=O)c2ccc3c(c2)c2ccccc2n3C)c(OC)n1.Cl = 240
